system.name: SXR (Homo sapiens)
Sequence (O75469 1-434): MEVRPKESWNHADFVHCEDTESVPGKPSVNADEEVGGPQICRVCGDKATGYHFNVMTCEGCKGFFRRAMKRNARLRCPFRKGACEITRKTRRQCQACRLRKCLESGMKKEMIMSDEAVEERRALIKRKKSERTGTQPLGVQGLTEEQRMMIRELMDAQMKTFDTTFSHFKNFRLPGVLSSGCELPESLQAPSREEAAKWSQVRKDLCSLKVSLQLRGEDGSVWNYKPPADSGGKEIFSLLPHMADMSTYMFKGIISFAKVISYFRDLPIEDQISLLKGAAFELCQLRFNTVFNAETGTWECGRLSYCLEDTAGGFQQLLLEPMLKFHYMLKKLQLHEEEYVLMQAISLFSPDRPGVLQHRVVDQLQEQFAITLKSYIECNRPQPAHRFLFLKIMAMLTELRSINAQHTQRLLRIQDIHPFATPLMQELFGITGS
Sequence (P19793 1-462 partner): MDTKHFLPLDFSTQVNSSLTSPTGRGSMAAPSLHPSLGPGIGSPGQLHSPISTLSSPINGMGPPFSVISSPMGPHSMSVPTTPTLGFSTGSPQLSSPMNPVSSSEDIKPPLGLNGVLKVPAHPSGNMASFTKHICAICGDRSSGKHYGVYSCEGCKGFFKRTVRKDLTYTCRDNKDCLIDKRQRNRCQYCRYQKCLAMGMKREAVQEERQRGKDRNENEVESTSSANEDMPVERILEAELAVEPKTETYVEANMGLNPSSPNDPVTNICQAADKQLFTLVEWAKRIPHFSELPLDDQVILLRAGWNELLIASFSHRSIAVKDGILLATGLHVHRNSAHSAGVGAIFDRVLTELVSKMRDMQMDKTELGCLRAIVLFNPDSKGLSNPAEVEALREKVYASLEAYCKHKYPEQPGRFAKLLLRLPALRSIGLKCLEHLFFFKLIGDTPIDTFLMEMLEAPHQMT
method.summary: Transfection-based reporter assay in CV-1 cells, GAL4-SXR or full-length SXR
Design: dose or concentration left out as unconfirmed
protocol.conditions: cotransfection, panel of steroids as printed (FIG. 4)
quantity.name: Activation of SXR response elements (DR-3, DR-4, DR-5) by full-length SXR

chemical.smiles	test.value
C[C@]12CCC(=O)C=C1CC[C@@H]1[C@@H]2[C@@H](O)C[C@]2(C=O)[C@@H](C(=O)CO)CC[C@@H]12	little response
C[C@]12CCC(=O)C=C1CC[C@@H]1[C@@H]2[C@@H](O)C[C@@]2(C)[C@H]1CC[C@]2(O)C(=O)CO	little response

----------
system.name: SXR (Homo sapiens, UniProt O75469)
method.summary: Transfection-based reporter assay in CV-1 cells, GAL4-SXR or full-length SXR
protocol.conditions: 50 μM, tamoxifen 5 μM (FIG. 7A)
quantity.name: Activation of human SXR by compounds known to induce CYP3A4

Solved cases (4 shown):
chemical.smiles	test.value
Oc1ccc([C@H]2COc3cc(O)ccc3C2)cc1	activate
C[C@]12C[C@H](O)[C@H]3[C@@H](CCC4=CC(=O)CC[C@@]43C)[C@@H]1CC[C@@H]2C(=O)CO	most potent activators
C[C@]12CC[C@@H]3c4ccc(O)cc4CC[C@H]3[C@@H]1CC[C@@H]2O	most potent activators
CC/C(=C(/CC)c1ccc(O)cc1)c1ccc(O)cc1	most potent activators

Suppose we examine the molecule O=c1oc2cc(O)ccc2c2oc3cc(O)ccc3c12 ; what Activation of human SXR by compounds known to induce CYP3A4 value has been reported?
most potent activators

Request the reported Activation of human SXR by compounds known to induce CYP3A4 associated with O=c1c(-c2ccc(O)cc2)coc2cc(O)cc(O)c12
activate

----------
system.name: UniProtKB O75469
Sequence (O75469 1-434): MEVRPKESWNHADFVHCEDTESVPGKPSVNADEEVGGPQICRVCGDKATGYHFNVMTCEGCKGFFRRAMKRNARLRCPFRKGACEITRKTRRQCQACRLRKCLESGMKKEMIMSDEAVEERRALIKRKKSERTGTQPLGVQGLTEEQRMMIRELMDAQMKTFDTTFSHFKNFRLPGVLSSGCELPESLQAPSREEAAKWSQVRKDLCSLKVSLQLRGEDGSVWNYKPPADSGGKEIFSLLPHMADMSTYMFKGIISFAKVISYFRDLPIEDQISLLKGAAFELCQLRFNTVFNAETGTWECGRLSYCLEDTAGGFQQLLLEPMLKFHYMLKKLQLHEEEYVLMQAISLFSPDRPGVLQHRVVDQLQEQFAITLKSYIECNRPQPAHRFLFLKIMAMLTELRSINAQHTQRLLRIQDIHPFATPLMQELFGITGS
quantity.name: Induction of CYP3A23 promoter reporter with co-transfection of SXR

chemical.smiles	test.value
CC(=O)[C@H]1CC[C@H]2[C@@H]3CC=C4C[C@@H](O)CC[C@]4(C)[C@H]3CC[C@]12C	significant induction
CCC1(c2ccccc2)C(=O)NC(=O)NC1=O	significant induction
C[C@]12CC[C@@H]3c4ccc(O)cc4CC[C@H]3[C@@H]1CC[C@@H]2O	significant induction
